meta.source: the supplement of paper PMC7125110

B1: glmS ribozyme (parent)
chain: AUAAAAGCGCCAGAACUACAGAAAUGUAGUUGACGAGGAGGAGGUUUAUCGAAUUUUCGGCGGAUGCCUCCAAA

Variants of: B1
PROTOCOL: self-cleavage kobs at 640 uM GlcN6P; higher = faster cleavage; RNA array
MEASUREMENT_SETUP: with glucosamine-6-phosphate
Variants at the floor of the assay were thinned out.
For each entry below, report its self-cleavage kobs at 640 uM GlcN6P value.
// units = s⁻¹; emit number, no label

**Q:** What measured self-cleavage kobs at 640 uM GlcN6P goes with U55A G66A ?
**A:** 0.00563

**Q:** What measured self-cleavage kobs at 640 uM GlcN6P goes with G32C C70G C71G ?
**A:** 0.000291

**Q:** What measured self-cleavage kobs at 640 uM GlcN6P goes with `U65A` ?
**A:** 0.00117

**Q:** What measured self-cleavage kobs at 640 uM GlcN6P goes with C50G U57A C58G ?
**A:** 0.000297

**Q:** What measured self-cleavage kobs at 640 uM GlcN6P goes with G32A U45A ?
**A:** 0.00117

**Q:** What measured self-cleavage kobs at 640 uM GlcN6P goes with A42G C68U ?
**A:** 0.00237

**Q:** What measured self-cleavage kobs at 640 uM GlcN6P goes with A52G U56G ?
**A:** 0.000309
